Each record here notes measured AUC(0-inf).
experiment: AUC (infinity) in rat at 1 mg/kg, po; assay type: ADME, organism-based; set-up: time infinity, dose 1 mg/kg, route oral; conditions: plasma
PROPERTY NAME: AUC(0-inf) (ng·h/mL)

# COMPOUND STRING, READING
measured = [
    ("CC1=C(CNCCC(=O)O)CCc2cc(OCCCCc3ccccc3)ccc21", 2400),
    ("CC1=C(CN2CC(C(=O)O)C2)CCc2cc(OCCCCc3ccccc3)ccc21", 3800),
]

====

assay: Volume of distribution at steady state in rat at 1 mg/kg, iv; format: ADME, organism-based; set-up: dose 1 mg/kg, route intravenous; details: in vivo, read-out: Vdss

# COMPOUND STRING, Vd, L/kg
rows = [
    ("CC1=C(CNCCC(=O)O)CCc2cc(OCCCCc3ccccc3)ccc21", 0.86),
    ("CC1=C(CN2CC(C(=O)O)C2)CCc2cc(OCCCCc3ccccc3)ccc21", 2.86),
]

====

experiment: Cmax in rat at 1 mg/kg, po; type: ADME, organism-based; parameters: dose 1 mg/kg, route oral; conditions: in vivo

# COMPOUND STRING, Cmax, ng/mL
measured = [
    ("CC1=C(CN2CC(C(=O)O)C2)CCc2cc(OCCCCc3ccccc3)ccc21", 181),
    ("CC1=C(CNCCC(=O)O)CCc2cc(OCCCCc3ccccc3)ccc21", 168),
]

====

Each record here notes measured half-life.
assay: Half life in rat at 1 mg/kg, po; assay type: ADME, organism-based; design: dose 1 mg/kg, route oral; settings: in vivo

# COMPOUND STRING, half-life [h]
rows = [
    ("CC1=C(CNCCC(=O)O)CCc2cc(OCCCCc3ccccc3)ccc21", 6.9),
    ("CC1=C(CN2CC(C(=O)O)C2)CCc2cc(OCCCCc3ccccc3)ccc21", 16.7),
]

====

Each record here notes measured clearance.
assay: Total clearance in rat at 1 mg/kg, iv; type: ADME, organism-based; parameters: dose 1 mg/kg, route intravenous; conditions: in vivo

# COMPOUND STRING, clearance, mL/min/kg
records = [
    ("CC1=C(CN2CC(C(=O)O)C2)CCc2cc(OCCCCc3ccccc3)ccc21", 4),
    ("CC1=C(CNCCC(=O)O)CCc2cc(OCCCCc3ccccc3)ccc21", 3.1),
]

====

biological target: UniProt:Q99500; assay: Agonist activity at human S1P3 receptor expressed in CHO cells assessed as intracellular calcium levels
Sequence (Q99500 whole entry): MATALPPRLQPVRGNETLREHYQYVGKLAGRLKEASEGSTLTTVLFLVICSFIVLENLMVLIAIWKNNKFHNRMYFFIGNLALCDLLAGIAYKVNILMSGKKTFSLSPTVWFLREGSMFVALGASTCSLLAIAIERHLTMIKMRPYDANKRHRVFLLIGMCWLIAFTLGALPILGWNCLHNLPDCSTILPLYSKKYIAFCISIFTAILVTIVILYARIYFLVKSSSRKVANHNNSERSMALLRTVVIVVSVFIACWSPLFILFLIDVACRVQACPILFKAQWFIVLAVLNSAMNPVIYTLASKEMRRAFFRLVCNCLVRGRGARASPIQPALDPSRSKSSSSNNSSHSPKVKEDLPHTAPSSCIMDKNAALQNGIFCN
pEC50: −log10 of the molar value.
Each record here notes measured pEC50.

# COMPOUND STRING, ASSAYED TARGET, pEC50
measured = [
    ("Cc1cc(OCCCCc2ccccc2)ccc1/C=C/CNCCC(=O)O", "UniProt:Q99500", "< 5.00"),
    ("O=C(O)C1CCN(C/C=C/c2ccc(OCCCc3ccccc3)cc2)CC1", "UniProt:Q99500", "< 5.00"),
    ("Cc1cc(/C=C/CNCCC(=O)O)ccc1OCCCCc1ccccc1", "UniProt:Q99500", "< 5.00"),
    ("O=C(O)CCNC/C=C/c1ccc(OCCCCc2ccccc2)cc1Cl", "UniProt:Q99500", 5.14),
    ("O=C(O)C1CN(C/C=C/c2ccc(OCCCc3ccccc3)cc2)C1", "UniProt:Q99500", 5.48),
    ("O=C(O)CCNC/C=C/c1ccc(OCCCCc2ccccc2)cc1", "UniProt:Q99500", "< 5.00"),
    ("C/C(=C\\c1ccc(OCCCCc2ccccc2)cc1)CNCCC(=O)O", "UniProt:Q99500", 5.52),
    ("O=C(O)CCNC/C=C/c1ccc(OCCCCCc2ccccc2)cc1", "UniProt:Q99500", 5.17),
    ("COc1cc(OCCCCc2ccccc2)ccc1/C=C/CNCCC(=O)O", "UniProt:Q99500", "< 5.00"),
    ("CC1=C(CNCCC(=O)O)CCc2cc(OCCCCc3ccccc3)ccc21", "UniProt:Q99500", "< 5.00"),
    ("CC1=C(CN2CC(C(=O)O)C2)CCCc2cc(OCCCCc3ccccc3)ccc21", "UniProt:Q99500", "< 5.00"),
    ("O=C(O)CCNCC1=Cc2ccc(OCCCCc3ccccc3)cc2CC1", "UniProt:Q99500", 5.11),
    ("CC1=C(CN2CC(C(=O)O)C2)CCc2cc(OCCCCc3ccccc3)ccc21", "UniProt:Q99500", "< 5.00"),
]
